# assay: Multiple ascending dose plasma pharmacokinetics in healthy volunteers
# Type: in vivo, human
# applied.conditions: human, plasma, oral, 10 mg, 10 mg capsules once daily, Day 10; mean ± SD
readout.name: Tmax (h)
Report the figure in h without appending any unit label.

Qu. # return recorded Tmax for input "Cl.N#Cc1cccc(-c2ccc3ncc(-c4cc(F)cc(F)c4)c(N4CCC(N)CC4)c3c2)c1O"
Ans. 3

###

# assay: Single ascending dose plasma pharmacokinetics in healthy volunteers
# Assay type: in vivo
# applied.conditions: human, oral, single dose 40 mg capsules, fasted, mean ± SD, read-out: t1/2 (converted)
readout.name: half-life (h)
Report the figure in h without appending any unit label.

Qu. # return recorded half-life for input Cl.N#Cc1cccc(-c2ccc3ncc(-c4cc(F)cc(F)c4)c(N4CCC(N)CC4)c3c2)c1O [paltusotine]
Ans. 27

###

# assay: Multiple ascending dose plasma pharmacokinetics in healthy volunteers
# Format: in vivo, human
# applied.conditions: human, plasma, oral, 30 mg, 30 mg capsules once daily, Day 1; mean ± SD; read-out: AUC0-24
readout.name: AUC(0-t) (ng·h/mL)
Report the figure in ng·h/mL without appending any unit label.

Qu. # return recorded AUC(0-t) for input "Cl.N#Cc1cccc(-c2ccc3ncc(-c4cc(F)cc(F)c4)c(N4CCC(N)CC4)c3c2)c1O"
Ans. 578

###

# assay: Single ascending dose plasma pharmacokinetics in healthy volunteers
# Format: in vivo
# applied.conditions: human, oral, single dose 60 mg capsules, fasted, mean ± SD, read-out: Tmax
readout.name: Tmax
Give the number first and the unit second.

Qu. # return recorded Tmax for input Cl.N#Cc1cccc(-c2ccc3ncc(-c4cc(F)cc(F)c4)c(N4CCC(N)CC4)c3c2)c1O [paltusotine]
Ans. 3 h

###

# assay: Multiple ascending dose plasma pharmacokinetics in healthy volunteers
# Type: in vivo, human
# applied.conditions: human, plasma, oral, 10 mg, 10 mg capsules once daily, Day 1; mean ± SD
# Experimental: In the single-dose phase, participants were randomized 6:2 to paltusotine (1.25, 2.5, 5, 10, 20, 40, and 60 mg) or placebo in 7 cohorts (S1 to S7). […] Plasma pharmacokinetic sample analysis for paltusotine was determined using validated procedures by CPR Pharma Services (Thebarton, Australia). Briefly, plasma paltusotine concentrations were determined by high-pressure liquid chromatography (HPLC) coupled with tandem mass spectrometry detection (MS/MS). […]
readout.name: Cmax (ng/mL)
Report the figure in ng/mL without appending any unit label.

Qu. # return recorded Cmax for input "Cl.N#Cc1cccc(-c2ccc3ncc(-c4cc(F)cc(F)c4)c(N4CCC(N)CC4)c3c2)c1O"
Ans. 78.7

###

# assay: Multiple ascending dose plasma pharmacokinetics in healthy volunteers
# Format: in vivo, human
# applied.conditions: human, plasma, oral, 10 mg, 10 mg capsules once daily, Day 10, sampling to 240 h; mean ± SD; read-out: t1/2 (converted)
readout.name: half-life (h)
Report the figure in h without appending any unit label.

Qu. # return recorded half-life for input Cl.N#Cc1cccc(-c2ccc3ncc(-c4cc(F)cc(F)c4)c(N4CCC(N)CC4)c3c2)c1O [paltusotine]
Ans. 42

###

# assay: Single ascending dose plasma pharmacokinetics in healthy volunteers
# Format: in vivo
# applied.conditions: human, single dose 10 mg oral solution, fasted, mean ± SD
readout.name: AUC(0-inf)
Give the number first and the unit second.

Qu. # return recorded AUC(0-inf) for input "Cl.N#Cc1cccc(-c2ccc3ncc(-c4cc(F)cc(F)c4)c(N4CCC(N)CC4)c3c2)c1O"
Ans. 1650 ng·h/mL
